- SYSTEM UNDER TEST: HLA-A*23:01
- PROTOCOL TEXT: IEDB peptide-MHC binding, purified MHC/competitive/radioactivity; filed as Kd, often an IC50 or EC50 that approximates it; bounds were set here for any values at or beyond the usual limits of such assays
- RECORDED CONDITIONS: source organism: Dengue virus 4 Thailand/0348/1991
ENDPOINT LABEL: Kd (nM)
// units = nM; emit number, no label

Field Kd (entry RGWGNGCGLF ) reads 898

* * *

- SYSTEM UNDER TEST: HLA-B*27:03
- PROTOCOL TEXT: IEDB peptide-MHC binding, purified MHC/competitive/fluorescence; filed as Kd, often an IC50 or EC50 that approximates it; bounds were set here for any values at or beyond the usual limits of such assays
- RECORDED CONDITIONS: source organism: New York virus
ENDPOINT LABEL: Kd

Here FVKDWMDRI was tested on HLA-B*27:03, and its Kd came to ≥ 20 µM
